# target-or-system: human mGluR1 (Homo sapiens (Human), UniProt Q13255)
# Sequence (Q13255 19-1194): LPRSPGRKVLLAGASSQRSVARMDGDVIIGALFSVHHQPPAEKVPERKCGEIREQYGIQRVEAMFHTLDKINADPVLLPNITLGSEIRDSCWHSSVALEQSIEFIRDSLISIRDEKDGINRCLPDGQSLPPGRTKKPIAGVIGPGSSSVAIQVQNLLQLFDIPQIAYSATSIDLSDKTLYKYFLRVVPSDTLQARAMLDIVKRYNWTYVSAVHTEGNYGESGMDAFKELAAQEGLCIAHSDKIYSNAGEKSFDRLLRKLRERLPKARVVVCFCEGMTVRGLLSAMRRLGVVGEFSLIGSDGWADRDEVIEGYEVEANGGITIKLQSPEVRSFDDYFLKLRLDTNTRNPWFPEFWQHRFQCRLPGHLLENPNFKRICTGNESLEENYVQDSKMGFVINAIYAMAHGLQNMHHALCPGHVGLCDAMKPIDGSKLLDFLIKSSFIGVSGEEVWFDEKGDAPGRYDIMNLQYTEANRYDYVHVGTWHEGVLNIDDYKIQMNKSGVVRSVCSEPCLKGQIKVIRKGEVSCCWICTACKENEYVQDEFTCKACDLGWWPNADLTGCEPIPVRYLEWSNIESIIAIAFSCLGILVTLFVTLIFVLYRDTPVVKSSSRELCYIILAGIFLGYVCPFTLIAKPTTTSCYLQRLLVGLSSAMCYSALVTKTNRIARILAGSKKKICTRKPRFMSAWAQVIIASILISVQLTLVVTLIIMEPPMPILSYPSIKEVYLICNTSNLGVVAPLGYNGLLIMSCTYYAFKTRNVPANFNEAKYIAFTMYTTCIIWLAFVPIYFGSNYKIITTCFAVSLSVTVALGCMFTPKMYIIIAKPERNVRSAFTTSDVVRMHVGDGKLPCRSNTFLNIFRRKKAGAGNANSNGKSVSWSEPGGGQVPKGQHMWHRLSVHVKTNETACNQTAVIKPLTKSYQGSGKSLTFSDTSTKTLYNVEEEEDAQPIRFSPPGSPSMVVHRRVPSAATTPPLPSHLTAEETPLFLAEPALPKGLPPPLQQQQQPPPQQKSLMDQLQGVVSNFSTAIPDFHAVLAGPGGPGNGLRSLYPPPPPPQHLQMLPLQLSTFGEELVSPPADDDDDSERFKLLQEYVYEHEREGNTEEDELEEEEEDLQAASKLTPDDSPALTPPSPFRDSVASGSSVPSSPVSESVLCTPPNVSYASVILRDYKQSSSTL
# assay-comment: mGluR1 antagonism, L-glutamate induced intracellular calcium increase (FLIPR) in CHO cells stably expressing human mGluR1
# recorded-conditions: L-glutamate induced intracellular calcium, CHO cells expressing human mGluR1, FLIPR
pIC50: −log10 of the molar value.
Consider the following compounds and their measured pIC50 readings.

COc1cccc(C2=NCC(=O)N3CCc4c(OC)cccc4C3=C2)n1 = < 5.00
CC1=C2c3cccc(-c4cc(C)no4)c3CCN2C(=O)CN=C1n1cnc(C2CC2)c1 = < 5.00
Cc1cn(C2=NCC(=O)N3CCc4c(cccc4-c4cncs4)C3=C2)cn1 = < 5.00

# ---- query compound ----
[Q] Report pIC50 on human mGluR1 (Homo sapiens (Human), UniProt Q13255) for this entry: `COc1cc(C2=NCC(=O)N3CCc4c(cccc4-c4ccc(F)nc4)C3=C2)ccn1`
[A] < 5.00

###

Consider the following compounds and their measured pIC50 readings.
# target-or-system: human mGluR1 (Homo sapiens (Human), UniProt Q13255)
# assay-comment: mGluR1 antagonism, L-glutamate induced intracellular calcium increase (FLIPR) in CHO cells stably expressing human mGluR1
# recorded-conditions: L-glutamate induced intracellular calcium, CHO cells expressing human mGluR1, FLIPR
Notebook: values listed as pIC50 are -log10 of the concentration (mol/L).

Here's what some known entries look like.
O=C1CN=C(n2cnc(CF)c2)C=C2c3cccc(C4CC4)c3CCN12 [Example 99m] = 6.17
CCc1cccc2c1CCN1C(=O)CN=C(c3cccc(OC)c3)C=C21 = 5.66
O=C1CN=C(c2cccs2)C=C2c3cccc(F)c3CCN12 = 6.10

# ---- query compound ----
[Q] Check the records and state pIC50 for `COCc1cn(C2=NCC(=O)N3CCc4c(ccc(F)c4C4CC4)C3=C2)cn1`
[A] 6.54

###

# target-or-system: human mGluR1 (Homo sapiens (Human), UniProt Q13255)
# assay-comment: mGluR1 antagonism, L-glutamate induced intracellular calcium increase (FLIPR) in CHO cells stably expressing human mGluR1
# recorded-conditions: L-glutamate induced intracellular calcium, CHO cells expressing human mGluR1, FLIPR
assay-readout: IC50

Here's what some known entries look like.
O=C1CN=C(n2cnc(C3CC3)c2)C=C2c3cccc(-c4ccc(F)nc4F)c3CCN12 = > 2000 nM
Cc1cc(-c2cccc3c2CCN2C(=O)CN=C(n4cnc(C5CC5)c4)C=C32)sn1 = > 10000 nM
Cc1cn(C2=NCC(=O)N3CCc4c(cccc4-c4ccncc4)C3=C2)cn1 = > 10000 nM
O=C1CN=C(c2ccoc2)C=C2c3cccc(-c4ccncc4)c3CCN12 = > 10000 nM
CC(C)c1cn(C2=NCC(=O)N3CCc4c(cccc4-c4nccn4C)C3=C2)cn1 = > 10000 nM
COc1cc(C2=NCC(=O)N3CCc4c(cccc4-c4ccccn4)C3=C2)ccn1 = > 10000 nM

[Q] Check the records and state IC50 for `COc1cccc(C2=NCC(=O)N3CCc4c(Br)cccc4C3=C2)c1`
[A] 2800 nM

[Q] Check the records and state IC50 for `CCc1cn(C2=NCC(=O)N3CCc4c(cccc4C4(F)CCC4)C3=C2)cn1`
[A] 2300 nM

[Q] Check the records and state IC50 for `COc1cccc2c1CCN1C(=O)CN=C(n3cnc(C(C)C)c3)C=C21`
[A] 3100 nM

[Q] Check the records and state IC50 for O=C1CN=C(n2cnc(C3CC3)c2)C=C2c3ccnc(C4CC4)c3CCN12 [Example 110a]
[A] > 2000 nM

[Q] Check the records and state IC50 for `Cc1ncn(C2=NCC(=O)N3CCc4c(cccc4-c4cnc(F)cn4)C3=C2)n1`
[A] > 10000 nM

[Q] Check the records and state IC50 for O=C1CN=C(n2cnc(C3CC3)n2)C=C2c3ccnc(C4CC4)c3CCN12 [Example 110b]
[A] > 10000 nM

[Q] Check the records and state IC50 for `COC(=O)c1cccc2c1CCN1C(=O)CN=C(n3cnc(C4CC4)c3)C=C21`
[A] 2070 nM

[Q] Check the records and state IC50 for Cc1ncn(C2=NCC(=O)N3CCc4c(ccc(F)c4-c4ccc(F)nc4)C3=C2)n1 [Example 99o]
[A] > 10000 nM

[Q] Check the records and state IC50 for `O=C1CN=C(n2cnc(C3CC3)c2)C=C2c3cccc(-c4cnco4)c3CCN12`
[A] 1800 nM

[Q] Check the records and state IC50 for `CCc1cccc2c1CCN1C(=O)CN=C(n3cnc(C(C)C)c3)C=C21`
[A] 650 nM
